Data provenance is the supplement of paper PMC10724198.

- Tested on: Saccharomyces cerevisiae
- procedureText: protein stability index of tFT-peptide fusion (C-terminal peptide) (PSI (0-1 scale)); higher = more stable (slower turnover)
- experimentalParameters: genetic background: das1 deletion; temperature: 30 C
Let's look at some sequences and their measured protein stability index.
Keep it simple and answer with nothing but the number.

Use the examples below as a reference point.
YIARNQKKGMSI [ECT1 C-terminal 12 aa] | 0.685
RELREHTKLLHS [YIL082W-A C-terminal 12 aa] | 0.688
LAPPPQKQSSSD [GRH1 C-terminal 12 aa] | 0.758

What value of protein stability index has been recorded for this entry: GNLSLDWLNLNL [GAT1 C-terminal 12 aa]
0.735

What value of protein stability index has been recorded for this entry: IEKADIVQQAIR [SLP1 C-terminal 12 aa]
0.691

What value of protein stability index has been recorded for this entry: TGFFGKLKKLFK [CRP1 C-terminal 12 aa]
0.762

What value of protein stability index has been recorded for this entry: NNLQSFYFDNSN [BCK2 C-terminal 12 aa]
0.689

What value of protein stability index has been recorded for this entry: IREFPEYFAAQA [RPL10 C-terminal 12 aa]
0.682

What value of protein stability index has been recorded for this entry: KISFKWKKQRKR [UTP11 C-terminal 12 aa]
0.71

What value of protein stability index has been recorded for this entry: DLLDKDVLLISE [CDC7 C-terminal 12 aa]
0.706

What value of protein stability index has been recorded for this entry: WSTFYYLCRKRE [CRG1 C-terminal 12 aa]
0.693

What value of protein stability index has been recorded for this entry: DDDDDGPYADDS [GSY2 C-terminal 12 aa]
0.707

What value of protein stability index has been recorded for this entry: YKNLRKTSSSHL [NPY1 C-terminal 12 aa]
0.843

What value of protein stability index has been recorded for this entry: GESSINSSTRHA [CTK2 C-terminal 12 aa]
0.683

What value of protein stability index has been recorded for this entry: AREQLYEKLEQA [MIC27 C-terminal 12 aa]
0.697

What value of protein stability index has been recorded for this entry: ALAASRAEQPPA [YCR049C C-terminal 12 aa]
0.691

What value of protein stability index has been recorded for this entry: ATEITPLLNIAE [VLD1 C-terminal 12 aa]
0.674

What value of protein stability index has been recorded for this entry: GVGRIITQPQRY [HUA1 C-terminal 12 aa]
0.704
